# ASSAY_SYSTEM: iNOS (Homo sapiens, UniProt P35228)
# METHOD_DESCRIPTION: abcam NOS Inhibitor Screening Kit, IC50 (fluorescence)
# Format: biochemical
# Design: IC50; IC50
# CONDITION_SUMMARY: abcam NOS Inhibitor Screening Kit, Table C-1
MEASUREMENT_LABEL: pIC50
Conceptually, pIC50 converts a concentration in mol/L into minus its log10.

Before answering, review these 5 worked examples.
(Q) Item NCCN(C(=O)c1cc(Cl)ccc1Br)c1ccccc1Cl has what recorded pIC50?
(A) 7.02

(Q) Also CNCC[C@@H](Oc1nc(C)ccc1Br)c1ccccc1 , if possible.
(A) 1.90

(Q) Another compound to look at: Cc1ccc(C#N)c(O[C@H](CCNCC2CC2)c2ccccc2)n1
(A) 5.34

(Q) Repeat for the following compound: N#Cc1ccc(Cl)cc1C(=O)N(CCNC(CO)CO)c1ccccc1
(A) 5.44

(Q) Ok, now N#Cc1ccc(Cl)cc1OC(CCN)c1ccnc(N)c1 (centres unmarked)
(A) 7.55

Others:
(Q) State the recorded pIC50 for this entry: CNCC[C@@H](Oc1cc(Cl)cc2[nH]ncc12)c1ccccc1
(A) 6.60

(Q) Please answer likewise for Cc1ccc(C#N)c(O[C@H](CCNCCCO)c2ccccc2)n1
(A) 5.76

----------
# ASSAY_SYSTEM: iNOS (Homo sapiens, UniProt P35228)
# METHOD_DESCRIPTION: abcam NOS Inhibitor Screening Kit, IC50 (fluorescence)
# Type: biochemical
# Design: IC50; IC50
# CONDITION_SUMMARY: abcam NOS Inhibitor Screening Kit, Table C-2
The following compounds are listed with their measured IC50 values.
Dear colleague, please return just the value in nM, with no unit written.

(Q) IC50 of NCCN(C(=O)c1cc(Cl)ccc1Br)c1ccccc1Cl on iNOS (Homo sapiens, UniProt P35228)?
(A) 95.5

(Q) Now give it for Cl.N#Cc1ccc(Cl)cc1CN(CCN)c1ccccc1 [GT-7003, hydrochloride] too.
(A) 64

(Q) What do you get for OCCNCC[C@@H](Oc1cc(Cl)cc2[nH]cnc12)c1ccccc1 ?
(A) 444

Next:
(Q) Could you share what IC50 was measured for N#Cc1ccc(Cl)cc1C(=O)N(CCN)c1ccccc1Cl , tested on iNOS (Homo sapiens, UniProt P35228)?
(A) 112

----------
# ASSAY_SYSTEM: iNOS (Homo sapiens, UniProt P35228)
# METHOD_DESCRIPTION: abcam NOS Inhibitor Screening Kit, IC50 (fluorescence)
# Format: biochemical
# Design: IC50
MEASUREMENT_LABEL: IC50

(Q) State the recorded IC50 for this entry: N#Cc1ccc(Cl)cc1O[C@H](CCN)c1ccccc1 [AZ 6b, reference compound]
(A) 48.8 nM

----------
Fold (GT-xxxx)/AZ 6b: recorded values
# ASSAY_SYSTEM: iNOS (Homo sapiens)
# METHOD_DESCRIPTION: abcam NOS Inhibitor Screening Kit, IC50 (fluorescence)
# Assay type: biochemical
# Set-up: Fold (GT-xxxx)/AZ 6b
# CONDITION_SUMMARY: ratio of IC50 to AZ 6b IC50 (0.0488 μM)
# Method: The IC50 of some compounds of the invention was determined using the abcam NOS Inhibitor Screening Kit. […] Measure Fluorescence at 360 nm excitation/450 nm emission.

(Q) Request the reported Fold (GT-xxxx)/AZ 6b associated with N#Cc1ccc(Cl)cc1C(=O)N(CCNCCCO)c1ccccc1 [GT-7011]
(A) 5.94

(Q) N#Cc1ccc(Cl)cc1OC(CCN)c1ccnc(N)c1 (centres unmarked) [GT-6064] ?
(A) 0.58

(Q) Another compound: NCC[C@@H](Oc1cc(Cl)cc2[nH]cnc12)c1ccccc1 [GT-6041]
(A) 3.20

(Q) Next entry: NCCN(C(=O)c1cc(Cl)ccc1Br)c1ccccc1Cl [GT-7007]
(A) 1.96

(Q) Please do the same for NCC[C@@H](Oc1cc(Cl)cc2[nH]ncc12)c1ccccc1 [GT-6045] as well.
(A) 4.73

Others:
(Q) Fill in the blank: the reported Fold (GT-xxxx)/AZ 6b of N#Cc1ccc(Cl)cc1C(=O)N(CCNCC1CC1)c1ccccc1 [GT-7019] is ____.
(A) 8.98

(Q) What do we get for CNCC[C@@H](Oc1cc(Cl)cc2[nH]cnc12)c1ccccc1 [GT-6058] ?
(A) 9.36

(Q) Item: N#Cc1ccc(Cl)cc1C(=O)N(CCN)c1ccccc1Cl [GT-7002]
(A) 2.30
